target: human 20S immunoproteasomes (Homo sapiens, UniProt P28062+P28065+P40306); construct: purchased Immatics Biotechnologies (Tübingen, Germany); test: In vitro proteolysis of MUC1 repeat peptides and glycopeptides by immunoproteasomes; type: biochemical; details: glycosylated 8- to 11-meric fragments relative to total 8- to 11-mers
No end group written: not given here. O‑glycan = not defined here
Item-by-item account of % of glycopeptide
Value expressed in %; do not type the unit.

Example entries and their recorded answers appear below.
Data request: Which measured % of glycopeptide value corresponds to AHGVTSAPESRPAPGSTAPPA [P4] (fragment of digested MUC1; listed as Homo sapiens) [Peptide P4] ?
Data returned: 0

Data request: If you can, please state the reported % of glycopeptide value of AHGVTSAPESRPAPGSTAPPA [GP5] (AHGVT(O‑glycan)SAPESRPAPGSTAPPA; not fully specified; reading uncertain; also: glycan structure not given here; listed as Homo sapiens) [MUC1 glycopeptide, glycosylated threonine within the VTS motif] .
Data returned: 26

Data request: Can you share its % of glycopeptide? I mean this substance: AHGVTSAPESRPAPGSTAPPA [GP8] (AHGVTS(O‑glycan)APESRPAPGSTAPPA; reading uncertain; also: glycan structure not given here; listed as Homo sapiens) [chemically synthesized MUC1 derived glycopeptide, glycosylation site not readable]
Data returned: 21

Now look at this one.
Data request: Requested read-out: % of glycopeptide. Entry: (CVISAPDTRPAPGSTAPPAH)x5 [Peptide P1]
Data returned: 0

* * *

biological target: human 20S immunoproteasomes (Homo sapiens, UniProt P28062+P28065+P40306); construct: purchased Immatics Biotechnologies (Tübingen, Germany); test: In vitro proteolysis of MUC1 repeat peptides and glycopeptides by immunoproteasomes; assay type: biochemical; conditions: digest by immunoproteasomes
No end group written: not given here. O‑glycan = not defined here
Recorded metric: AVERAGE FRAGMENT LENGTH
Reply briefly: the number, and no unit.

Data request: Entry (CVISAPDTRPAPGSTAPPAH)x5 [Peptide P1] , system human 20S immunoproteasomes (Homo sapiens, UniProt P28062+P28065+P40306): what AVERAGE FRAGMENT LENGTH was measured?
Data returned: 25.2

Data request: Param readout = AVERAGE FRAGMENT LENGTH; param system = human 20S immunoproteasomes (Homo sapiens, UniProt P28062+P28065+P40306); param query = AHGVTSAPESRPAPGSTAPPA [GP6] (AHGVTSAPES(O‑glycan)RPAPGSTAPPA; reading uncertain; also: glycan structure not given here; listed as Homo sapiens) [MUC1 glycopeptide, glycosylated within the ESR motif] ; response: value
Data returned: 10.6

Data request: // map AHGVTSAPESRPAPGSTAPPA [P4] (fragment of digested MUC1; listed as Homo sapiens) [Peptide P4] to recorded AVERAGE FRAGMENT LENGTH (system: human 20S immunoproteasomes (Homo sapiens, UniProt P28062+P28065+P40306))
Data returned: 11.6

Data request: So what AVERAGE FRAGMENT LENGTH did HGVTSAPESRPAPGSTAPPA [GP7] get with human 20S immunoproteasomes (Homo sapiens, UniProt P28062+P28065+P40306)?
Data returned: 11.7

Data request: Please tell me: AVERAGE FRAGMENT LENGTH of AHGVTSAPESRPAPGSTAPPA [GP5] (AHGVT(O‑glycan)SAPESRPAPGSTAPPA; not fully specified; reading uncertain; also: glycan structure not given here; listed as Homo sapiens) [MUC1 glycopeptide, glycosylated threonine within the VTS motif] , system human 20S immunoproteasomes (Homo sapiens, UniProt P28062+P28065+P40306)?
Data returned: 11.6

// next entry
Data request: Query for human 20S immunoproteasomes (Homo sapiens, UniProt P28062+P28065+P40306): what AVERAGE FRAGMENT LENGTH does the record show for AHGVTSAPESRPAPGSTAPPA [GP8] (AHGVTS(O‑glycan)APESRPAPGSTAPPA; reading uncertain; also: glycan structure not given here; listed as Homo sapiens) [chemically synthesized MUC1 derived glycopeptide, glycosylation site not readable] ?
Data returned: 10.5
